Please respond with reported pEC50 for every item in the list.
- system.name: T1, human CXCR5 (human, UniProt P32302 1-372)
- T1 construct: whole, on cells; Always presented on cells; one entry is used for all cell lines; also called hCXCR5; C-X-C chemokine receptor type 5
- T1 sequence (looked up): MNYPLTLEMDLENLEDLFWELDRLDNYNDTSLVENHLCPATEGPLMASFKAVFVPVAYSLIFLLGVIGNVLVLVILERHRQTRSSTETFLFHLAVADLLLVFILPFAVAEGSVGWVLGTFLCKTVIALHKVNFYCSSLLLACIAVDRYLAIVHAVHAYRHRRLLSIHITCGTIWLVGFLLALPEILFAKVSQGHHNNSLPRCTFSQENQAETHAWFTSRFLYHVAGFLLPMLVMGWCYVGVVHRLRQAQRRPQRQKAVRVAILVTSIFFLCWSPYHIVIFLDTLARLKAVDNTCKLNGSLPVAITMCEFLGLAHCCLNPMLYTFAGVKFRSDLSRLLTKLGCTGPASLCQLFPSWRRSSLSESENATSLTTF
- protocol.notes: flow cytometry on adherent DX002 cells expressing CXCR5, MFI
Numbers only, as −log10 of the molar value.

• HFB2-4hz42hG1DE (antibody, V domains shown, Humanized (VH10/VL6) in hG1DE format) VH: QVQLVQSGAEVKKPGASVKVSCKASGFSLTSYGVSWVRQAPGQGLEWMGVIWGDGSTNYAQKLQGRVTMTKDTSTSTAYMELRSLRSDDTAVYYCARVVYWGQGTLVTVSS VL: EIVMTQSPATLSVSPGERATLSCRSSKSLLHSNGKTYLYWFQQKPGQAPRLLIYRMSNLASGIPARFSGSGSGTEFTLTISSVQSEDVAVYYCMQHLEYPYTFGQGTKLEIK = 9.91
• HFB2-4hz38hG1DE (antibody, V domains shown, Humanized (VH3/VL7) in hG1DE format) VH: QVQLQESGPGLVKPSETLSLTCTVSGFSLTSYGVSWVRQPPGKGLEWIGVIWGDGSTNYNPSLKSRVTISKDTSKNQVSLKLSSVTAADTAVYYCARVVYWGQGTLVTVSS VL: DIVMTQSPDSLAVSLGERATINCRSSKSLLHSNGKTYLYWFQQKPGQSPKLLLYRMSNLASGVPDRFSGSGSGTDFTLTISSLQAEDVAVYYCMQHLEYPYTFGQGTKLEIK = 10.06
• HFB2-4hz39hG1DE (antibody, V domains shown, Humanized (VH6/VL6) in hG1DE format) VH: QVQLQESGPGLVKPSGTLSLTCAVSGFSLTSYGVSWVRQPPGKGLEWIGVIWGDGSTNYNPSLKSRLTISKDKSKNQVSLKLSSVTAADTAVYYCARVVYWGQGTLVTVSS VL: EIVMTQSPATLSVSPGERATLSCRSSKSLLHSNGKTYLYWFQQKPGQAPRLLIYRMSNLASGIPARFSGSGSGTEFTLTISSVQSEDVAVYYCMQHLEYPYTFGQGTKLEIK = 9.63

Please give pEC50 for each item listed below.
1. HFB2-4hG1DE (antibody, V domains shown, Chimeric HFB2-4 in the DE scaffold: human IgG1 constant region with S239D/I332E; also called HFB2-4DE) VH: QVQLKESGPGLVAPSQSLSITCTVSGFSLTSYGVSWVRQPPGKGLEWLGVIWGDGSTNYHSGLISRLSISKDNSKSQVFLKLNSLQSDDTATYYCARVVYWGQGTLVTVSA VL: DIVMTQAAPSVPVTPGESISISCRSSKSLLHSNGKTYLYWFLQRPGQSPQLLLYRMSNLASGVPDRFSGSGSGTAFTLRISRVEAEDVGVYYCMQHLEYPYTFGGGTKLEIK
2. HFB2-4hz37hG1DE (antibody, V domains shown, Humanized (VH3/VL6) produced in hG1DE format (human IgG1, S239D/I332E)) VH: QVQLQESGPGLVKPSETLSLTCTVSGFSLTSYGVSWVRQPPGKGLEWIGVIWGDGSTNYNPSLKSRVTISKDTSKNQVSLKLSSVTAADTAVYYCARVVYWGQGTLVTVSS VL: EIVMTQSPATLSVSPGERATLSCRSSKSLLHSNGKTYLYWFQQKPGQAPRLLIYRMSNLASGIPARFSGSGSGTEFTLTISSVQSEDVAVYYCMQHLEYPYTFGQGTKLEIK

9.95
10.11
